Just for reference, patent US20230278972A1 is where these values come from.

# System: Foxtail, Giant (giant foxtail, Setaria faberi)
# test.summary: Test A1 postemergence, Foxtail, Giant
# Type: in vivo
# condition.parameters: Postemergence, 31 g ai/ha; 0 to 100 scale (0 no effect, 100 complete control); 10 days
# Text: […]

{"columns": ["compound", "Plant response rating, Foxtail, Giant"],
 "data": [
  ["Cc1cc(C)c(N(COC(=O)C(C)(C)C)S(=O)(=O)C(F)(F)F)cc1C1=NOC2(C)CCCC12 (stereo not shown)", 0],
  ["Cc1c(C(=O)N(C)C)cc(NS(=O)(=O)C(F)(F)F)c(Cl)c1F", 0],
  ["CCOC(=O)N(c1cc(C(=O)N2CCC(c3ccccc3)CC2)c(C)cc1C)S(=O)(=O)C(F)(F)F", 0],
  ["CCc1cc(C)c(NS(=O)(=O)C(F)(F)F)cc1C1=NOC2CCCC12 (stereo not shown)", 20]
]}
